Assay system: T1, DRB7.2 (Arabidopsis thaliana, UniProt F4JHB3 1-190)
T1 sequence: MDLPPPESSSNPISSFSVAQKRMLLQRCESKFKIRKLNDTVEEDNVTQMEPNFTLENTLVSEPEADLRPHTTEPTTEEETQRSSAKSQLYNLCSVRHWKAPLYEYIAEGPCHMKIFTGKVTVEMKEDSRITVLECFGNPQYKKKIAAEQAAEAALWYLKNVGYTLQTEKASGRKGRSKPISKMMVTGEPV
Measurement protocol: EMSA; apparent Kd; Hill 2.68±0.77; EMSA: 50 mM potassium phosphate pH 7.0, 50 mM NaCl, 50 mM Na2SO4, 2 mM DTT; 40 bp RNA at 750 nM, 30 min, room temperature; 32P 80 bp dsRNA at 1 nM, 1 h, 4 C
Assay conditions: protein: recombinant, tags: His6 tag with TEV cleavage (pETtrx-1b), label: none (SYBR Gold stain), 1 nt 3' overhang (C) on complementary strand
Parameter: Kd (µM)
A number alone suffices; assume µM.

-- ask Could you share which Kd value was measured for 40 bp RNA (pre-siRNA) (dsRNA, 5'-phosphate on guide strand) RNA 1: AACAAGCGAAUGAGUCAUUCAUCCUAAGUCUGCAUAAAGU RNA 2: ACUUUAUGCAGACUUAGGAUGAAUGACUCAUUCGCUUGUUC ?
-- reply 2.28
